Assign AC50 to each entry below.
target-entity: Cytochrome P450 2C19 (Homo sapiens)
Sequence (P33261 whole entry): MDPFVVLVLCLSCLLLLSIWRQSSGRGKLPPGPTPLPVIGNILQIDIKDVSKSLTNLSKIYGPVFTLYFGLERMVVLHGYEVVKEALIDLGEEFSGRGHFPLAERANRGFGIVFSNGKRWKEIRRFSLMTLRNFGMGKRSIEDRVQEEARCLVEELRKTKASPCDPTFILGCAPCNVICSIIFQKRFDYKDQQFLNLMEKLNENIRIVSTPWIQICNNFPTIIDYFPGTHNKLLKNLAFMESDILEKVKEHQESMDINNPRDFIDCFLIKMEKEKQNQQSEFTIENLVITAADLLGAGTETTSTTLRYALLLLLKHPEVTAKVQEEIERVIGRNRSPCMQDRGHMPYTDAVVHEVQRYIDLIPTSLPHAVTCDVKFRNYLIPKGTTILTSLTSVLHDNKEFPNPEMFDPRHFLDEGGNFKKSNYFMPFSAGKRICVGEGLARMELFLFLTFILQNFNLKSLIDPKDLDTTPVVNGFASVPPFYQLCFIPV
assay-notes: Cytochrome panel assay with activity outcomes. Panel member name: p450-cyp2c19 Compounds with AC50 equal or less than 10 uM are considered active
Type: functional
particulars: read-out: AC50

Answered examples (2):
O=C(c1ccc2ncsc2c1)N1CCN(c2ccc(O)cc2)CC1 ... 20 µM (inconclusive)
CCC1CCc2c(c3ccccc3[nH]c2=O)O1 (stereo unspecified) ... 17.8 µM (inconclusive)

Look at each molecule and report its AC50.
1. CC(C)N(CCNC(=O)C1CCN(S(=O)(=O)N2CCOCC2)CC1)Cc1ccccc1
2. N#C[C@H](Cc1ccc(O)cc1)c1ccc(O)cc1
3. COc1nnc(OC)c2ccccc12
4. CCOc1c2ccc(C(=O)NCCCCc3ccccc3)cc2nn1CC

1. 39.8 µM (inconclusive)
2. 2 µM (inconclusive)
3. 0.0631 µM (inconclusive)
4. 8.91 µM (inconclusive)

The values you see were collected from ChEMBL document CHEMBL1201862.
